# test-target: human recombinant serotonin (5-Hydroxytryptamine) 5-HT7 receptor (Homo sapiens)
# Sequence (P34969 whole entry): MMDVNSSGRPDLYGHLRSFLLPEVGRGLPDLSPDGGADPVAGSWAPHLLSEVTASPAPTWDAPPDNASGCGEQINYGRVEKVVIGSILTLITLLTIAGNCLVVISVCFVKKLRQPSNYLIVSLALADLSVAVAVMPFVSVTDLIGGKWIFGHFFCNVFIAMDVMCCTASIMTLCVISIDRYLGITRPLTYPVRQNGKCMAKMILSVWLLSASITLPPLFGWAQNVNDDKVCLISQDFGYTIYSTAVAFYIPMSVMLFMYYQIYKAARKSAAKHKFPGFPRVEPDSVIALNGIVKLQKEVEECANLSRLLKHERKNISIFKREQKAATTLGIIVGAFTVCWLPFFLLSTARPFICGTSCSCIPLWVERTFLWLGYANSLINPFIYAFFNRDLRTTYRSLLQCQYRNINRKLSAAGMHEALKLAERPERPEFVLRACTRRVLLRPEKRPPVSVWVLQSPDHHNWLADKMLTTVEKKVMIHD
# test-protocol: Serotonin 5-HT7 radioligand binding ([3H]LSD)
# reported-conditions: compound at 1 μM; read-out: Inhibition of ligand binding, Serotonin 5-HT7 (percent inhibition of specific binding)
recorded-metric: inhibition at 1 µM (%)

# compound, value-reported
measured = [
    ("C/C(=C/n1c2c(c3cc(Cl)ccc31)CN(C)CC2)c1ccccc1F [Compound 212]", 98),
    ("C/C(=C\\n1c2c(c3cc(C)ccc31)CN(C)CC2)c1ccc(F)cc1 [Compound 87]", 100),
    ("CN1CCc2c(c3cc(Cl)ccc3n2/C=C(/c2ccc(F)cc2)C2CCC2)C1 [Compound 206]", 93),
    ("CCC(O)(Cn1c2c(c3cc(C)ccc31)CN(C)CC2)c1ccc(F)cc1 (stereo not drawn) [Compound 175]", 79),
    ("C/C(=C\\n1c2c(c3cc(Cl)ccc31)CN(C)CC2)c1ccccc1F [Compound 213]", 100),
    ("CN1CCc2c(c3cc(Cl)ccc3n2/C=C(/c2ccc(F)cc2)C2CC2)C1 [Compound 110]", 92),
    ("CN1CCc2c(c3cc(F)ccc3n2CC(C)(O)c2ccncc2)C1 (stereo not drawn) [Compound 181]", 30),
    ("C/C(=C\\n1c2c(c3cc(C)ccc31)CN(C)CC2)c1cc(Cl)cc(Cl)c1 [Compound 218]", 93),
    ("C/C(=C\\n1c2c(c3cc(Cl)ccc31)CN(C)CC2)c1ccccc1 [compound 106]", 98),
]
